- Assay Target: PRMT1 (Homo sapiens, UniProt Q99873)
- Construct: GST-tagged PRMT1; made in house; host or cells: High Five insect cells (baculovirus, pFastBacI)
- Sequence (Q99873 with tags, fused parts or gaps): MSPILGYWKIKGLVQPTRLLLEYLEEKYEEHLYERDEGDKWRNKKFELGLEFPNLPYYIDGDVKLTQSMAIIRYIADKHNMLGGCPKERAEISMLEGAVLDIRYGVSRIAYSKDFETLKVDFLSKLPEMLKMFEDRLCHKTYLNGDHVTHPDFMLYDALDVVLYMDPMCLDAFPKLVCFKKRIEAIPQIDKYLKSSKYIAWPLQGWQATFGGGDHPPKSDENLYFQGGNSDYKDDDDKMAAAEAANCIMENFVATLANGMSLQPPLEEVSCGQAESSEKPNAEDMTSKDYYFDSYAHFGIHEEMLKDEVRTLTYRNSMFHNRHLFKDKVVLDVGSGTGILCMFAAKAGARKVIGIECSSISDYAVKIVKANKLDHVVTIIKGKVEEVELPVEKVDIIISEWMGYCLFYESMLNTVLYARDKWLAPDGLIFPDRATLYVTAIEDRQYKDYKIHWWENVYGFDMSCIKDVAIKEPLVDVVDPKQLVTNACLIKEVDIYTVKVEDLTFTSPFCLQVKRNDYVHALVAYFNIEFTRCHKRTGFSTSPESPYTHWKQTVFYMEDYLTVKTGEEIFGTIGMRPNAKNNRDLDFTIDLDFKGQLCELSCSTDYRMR
- Assay Notes: PRMT1 Biochemical Assay (3H-SAM Flashplate, histone H4 peptide substrate)
- Test Parameters: Biochemical IC50 (Numerical, μM) PRMT1, single experiment or average of multiple experiments, Table 2a
Items are presented alongside their recorded IC50.
Kindly provide the numeric value in µM only, without the unit symbol.

Example entries begin here.
The value of IC50 measured for the compound CC(C)CCOc1cc(-c2n[nH]cc2CN(C)CCN)cc(C(F)(F)F)c1Cl turned out to be 0.152

// IC50 value for CCC(CC)Oc1cc(-c2n[nH]cc2CN(C)CCNC)cc(C(F)(F)F)c1 : 0.0135

So, CNCCN(C)Cc1c[nH]nc1-c1cc(C)c(OC2CCOCC2)c(C(F)(F)F)c1 ? Its IC50 was 0.0316

Documented IC50 of CNCCN(C)Cc1c[nH]nc1-c1cc(OCCOC)cc(C(F)(F)F)c1 : 0.0204

Measured IC50, CNCCN(C)Cc1c[nH]nc1-c1ccc(OCCOC)c(C(F)(F)F)c1 : 0.00554

CC(C)CCc1cc(-c2n[nH]cc2CN(C)CCN)cc(C(F)(F)F)c1 has a reported IC50 of 0.0114

Further cases:
Field IC50 (entry CCCOc1ccc(-c2c[nH]nc2CN(C)CCNC)cc1C(F)(F)F ) reads 0.00659

# IC50 (compound: CN(CCN)Cc1c[nH]nc1-c1ccc(F)c(C(F)(F)F)c1 ) is 0.0572

IC50 recorded for this compound, CNCCN(C)Cc1c[nH]nc1-c1cc(OCCC(C)C)cc(C(F)(F)F)c1 , is 0.00704

* * *

- Assay Target: PRMT1 (Homo sapiens)
- Construct: GST-tagged PRMT1; made in house; host or cells: High Five insect cells (baculovirus, pFastBacI)
- Assay Notes: PRMT1 Biochemical Assay (3H-SAM Flashplate, histone H4 peptide substrate)
- Test Parameters: Biochemical IC50 (Numerical, μM) PRMT1, single experiment or average of multiple experiments, Table 2a
Response field class: string, computed from recorded IC50 by ranges low-valued: < 0.02 µM; mid-valued: ≥ 0.02 µM and < 0.04 µM; high-valued: ≥ 0.04 µM

Lookup: Please indicate the class for CNCCN(C)Cc1c[nH]nc1-c1cc(C)c(OCC2CCOCC2)c(C(F)(F)F)c1 [Compound 65] based on its IC50.
Found: high-valued

Lookup: Into which category would you place CNCCN(C)Cc1c[nH]nc1-c1cc(OCCc2ccccc2OC)cc(C(F)(F)F)c1 [Compound 50] ?
Found: low-valued

Further cases:
Lookup: Which of the defined bands does the recorded IC50 of CNCCN(C)Cc1c[nH]nc1-c1cc(OCCCC(=O)OC)cc(C(F)(F)F)c1 [Compound 61] sit within?
Found: low-valued

Lookup: Category of CNCCN(C)Cc1c[nH]nc1-c1cc(Oc2ccccn2)cc(C(F)(F)F)c1 [Compound 52] :
Found: mid-valued

* * *

- Assay Target: PRMT1 (Homo sapiens)
- Construct: GST-tagged PRMT1; made in house; host or cells: High Five insect cells (baculovirus, pFastBacI)
- Assay Notes: PRMT1 Biochemical Assay (3H-SAM Flashplate, histone H4 peptide substrate)
- Test Parameters: Biochemical IC50 (Numerical, μM) PRMT1, single experiment or average of multiple experiments, Table 2a
Measured IC50 accompanies every entry in the list below.
Just the number please, in µM, no unit attached.

GET /value?item= CCCOc1ccc(-c2n[nH]cc2CN(C)CCNC)cc1C(F)(F)F [Compound 11] &field=IC50 returns 0.00462

Kindly note the recorded IC50 for CNCCN(C)Cc1c[nH]nc1-c1cc(C)c(OC2COC2)c(C(F)(F)F)c1 [Compound 66] , which is 0.00756

More entries:
Form field IC50, entry CNCCN(C)Cc1c[nH]nc1-c1cccc(C(F)(F)F)c1 [Compound 1] : 0.123

The recorded IC50 for CCCOc1cc(-c2n[nH]cc2CN(C)CCNC)cc(C(F)(F)F)c1 [Compound 19] is 0.0275

Entry CNCCN(C)Cc1n[nH]cc1-c1cc(OCCC(C)C)cc(C(F)(F)F)c1 [Compound 22] — recorded IC50 = 0.0189

What the record says about CNCCN(C)Cc1c[nH]nc1-c1cc(OC2CCCCC2)cc(C(F)(F)F)c1 [Compound 39] : IC50 is 0.0259

The molecule listed as CNCCN(C)Cc1c[nH]nc1-c1cc(Oc2ccncc2)cc(C(F)(F)F)c1 [Compound 38] shows IC50 equal to 0.138

Lookup result for CNCCN(C)Cc1n[nH]cc1-c1cc(Cl)c(OC(C)C)c(C(F)(F)F)c1 [Compound 33] ; measured IC50: 0.0441

* * *

- Assay Target: PRMT1 (Homo sapiens, UniProt Q99873)
- Construct: GST-tagged PRMT1; made in house; host or cells: High Five insect cells (baculovirus, pFastBacI)
- Assay Notes: PRMT1 Biochemical Assay (3H-SAM Flashplate, histone H4 peptide substrate)
- Test Parameters: Biochemical IC50 (Numerical, μM) PRMT1, single experiment or average of multiple experiments, Table 2a
Property: IC50 (µM)
Dear colleague, please return just the value in µM, with no unit written.

The following compounds have reported results that may help.
Just so you know, measured IC50 for CNCCN(C)Cc1c[nH]nc1-c1ccc(CC(C)C)c(C(F)(F)F)c1 [Compound 34] came out at 0.00444

So, CNCCN(C)Cc1c[nH]nc1-c1cc(OCCCOC)cc(C(F)(F)F)c1 [Compound 24] ? Its IC50 was 0.0229

Now for another entry.
Reported IC50 ( CNCCN(C)Cc1c[nH]nc1-c1cc(OCC(F)(F)F)cc(C(F)(F)F)c1 [Compound 60] ) = 0.0576

The values you see were collected from patent US20160039767A1.
